Target desc: T1, NativeRPtag(large)_with_Tags_and_Cys (Thermoanaerobacter tengcongensis)
T1 construct: Unlabeled in anisotropy assays; coupled through the engineered N-terminal Cys to SulfoLink agarose or maleimide plates in column, pull-down and ELISA assays
T1 chain: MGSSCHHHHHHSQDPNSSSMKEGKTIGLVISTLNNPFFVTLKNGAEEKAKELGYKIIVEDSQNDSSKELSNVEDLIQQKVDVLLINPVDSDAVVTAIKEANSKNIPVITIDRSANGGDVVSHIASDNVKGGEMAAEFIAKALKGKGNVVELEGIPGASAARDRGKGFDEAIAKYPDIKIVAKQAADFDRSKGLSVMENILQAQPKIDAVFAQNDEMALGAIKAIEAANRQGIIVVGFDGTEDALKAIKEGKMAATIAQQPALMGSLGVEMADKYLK
Method: fluorescence anisotropy, competitor chase
No end group written: not given here. *: point of attachment. RhodamineB = CCN(CC)c1ccc2c(-c3ccccc3C(=O)*)c3ccc(=[N+](CC)CC)cc-3oc2c1
Readout type: koff (s⁻¹)
Answer with a number only, understood to be in s⁻¹.

Known results for binders:
1) RhodamineB-GEKIPNFIPAELKLATKENVQ [RPtag(small) i15a]: 0.0183
2) RhodamineB-AELKLITKENVQ [RPtag(small) Nd9]: 0.00667
3) RhodamineB-GEKIPNFIPAELKLIT [RPtag(small) Cd5]: 0.0065

Field request: koff | item: RhodamineB-GEKIANFIPAELKLITKENVQ [RPtag(small) p5a]
0.0004
